# Target entity: T1, recombinant human trimeric ARG2 enzyme (construct not given) (human, UniProt P78540 23-354)
# T1 sequence (looked up): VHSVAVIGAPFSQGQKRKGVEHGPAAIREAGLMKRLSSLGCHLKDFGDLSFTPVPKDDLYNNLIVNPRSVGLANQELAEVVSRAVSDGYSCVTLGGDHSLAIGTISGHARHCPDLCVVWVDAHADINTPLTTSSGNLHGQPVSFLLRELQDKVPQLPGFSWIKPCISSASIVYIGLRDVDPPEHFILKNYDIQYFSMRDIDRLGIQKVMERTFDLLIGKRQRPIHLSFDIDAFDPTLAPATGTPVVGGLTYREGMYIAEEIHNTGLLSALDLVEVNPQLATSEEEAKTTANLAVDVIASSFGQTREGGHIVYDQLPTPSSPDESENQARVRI
# Procedure summary: cell-based or functional assay
Could you please report measured EC50, In Presence of rhARG2 (T cell proliferation) for the items listed next?
Field format: number, assumed nM, no unit text.

Briefly, EC50, In Presence of rhARG2 (T cell proliferation) measured for C0021180 recombinant human IgG1 (antibody, V domains shown) VH: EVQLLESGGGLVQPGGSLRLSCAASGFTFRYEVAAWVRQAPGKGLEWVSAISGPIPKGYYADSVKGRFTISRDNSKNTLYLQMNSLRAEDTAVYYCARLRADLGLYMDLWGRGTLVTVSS VL: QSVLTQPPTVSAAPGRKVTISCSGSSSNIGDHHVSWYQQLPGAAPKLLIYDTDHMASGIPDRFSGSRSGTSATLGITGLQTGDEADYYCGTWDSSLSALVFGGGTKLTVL : 137

The value of EC50, In Presence of rhARG2 (T cell proliferation) measured for the binder C0021177 recombinant human IgG1 (antibody, V domains shown) VH: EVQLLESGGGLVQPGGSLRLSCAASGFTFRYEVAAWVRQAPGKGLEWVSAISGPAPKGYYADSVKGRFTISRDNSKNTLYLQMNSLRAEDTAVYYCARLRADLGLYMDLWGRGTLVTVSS VL: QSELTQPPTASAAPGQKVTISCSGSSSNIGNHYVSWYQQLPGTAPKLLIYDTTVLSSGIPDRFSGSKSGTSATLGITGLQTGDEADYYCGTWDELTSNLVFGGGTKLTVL turned out to be 86

Lab note: measured EC50, In Presence of rhARG2 (T cell proliferation) of C0021061 recombinant human IgG1 (antibody, V domains shown) VH: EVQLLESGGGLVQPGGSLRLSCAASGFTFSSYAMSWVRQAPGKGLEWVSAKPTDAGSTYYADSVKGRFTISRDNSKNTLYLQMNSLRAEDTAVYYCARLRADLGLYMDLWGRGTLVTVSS VL: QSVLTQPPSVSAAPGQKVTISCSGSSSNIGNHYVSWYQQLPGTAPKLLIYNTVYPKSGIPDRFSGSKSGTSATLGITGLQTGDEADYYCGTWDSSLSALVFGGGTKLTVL was 149

What the record says about C0021158 recombinant human IgG1 (antibody, V domains shown) VH: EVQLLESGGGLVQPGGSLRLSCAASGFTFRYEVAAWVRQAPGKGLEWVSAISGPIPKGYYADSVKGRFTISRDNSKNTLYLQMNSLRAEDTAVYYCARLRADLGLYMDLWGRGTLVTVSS VL: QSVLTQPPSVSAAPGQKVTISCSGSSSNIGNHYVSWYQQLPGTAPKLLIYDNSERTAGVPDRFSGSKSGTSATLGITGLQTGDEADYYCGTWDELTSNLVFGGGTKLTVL : EC50, In Presence of rhARG2 (T cell proliferation) is 157
